# Experiment Description: Mouse PK studies after oral and IV dosing
# Format: in vivo
# Measurement Parameters: in vivo, iv, 1 mg/kg, IV, dose 1 mg/kg, read-out: IV T1/2 (converted)
Measured Endpoint: half-life (h)
Give just the numeric value; h need not be written.

[[record]]
compound = "C[C@H]1CC2(CCN(c3ccc(C(=O)N4CCC(N5CCN(c6ccc7c(c6)C(=O)N(C6CCC(=O)NC6=O)C7=O)CC5)CC4)nn3)CC2)CN1c1ccc(C#N)c(Cl)c1 (some centres unmarked)"
measured_endpoint = "half-life"
number = 3.6

[[record]]
compound = "C[C@H]1CC2(CCN(c3ccc(C(=O)N4CCN(C5CCN(c6ccc7c(c6)C(=O)N(C6CCC(=O)NC6=O)C7=O)CC5)CC4)cc3F)CC2)CN1c1ccc(C#N)c(Cl)c1 (some centres unmarked)"
measured_endpoint = "half-life"
number = 8.2

[[record]]
compound = "C[C@H]1CC2(CCN(c3ccc(C(=O)N4CCN(C5CCN(c6cc7c(cc6F)C(=O)N(C6CCC(=O)NC6=O)C7=O)CC5)CC4)cc3)CC2)CN1c1ccc(C#N)c(Cl)c1 (some centres unmarked)"
measured_endpoint = "half-life"
number = 7.3

[[record]]
compound = "C[C@H]1CC2(CCN(c3cnc(C(=O)N4CCC(CN5Cc6cc7c(cc6C5)C(=O)N(C5CCC(=O)NC5=O)C7=O)CC4)cn3)CC2)CN1c1ccc(C#N)c(Cl)c1 (some centres unmarked)"
measured_endpoint = "half-life"
number = 2.6


Turning to the following compound.
## Input Which value of half-life has been reported for C[C@H]1CC2(CCN(c3ccc(C(=O)N4CCC(CN5CCN(c6ccc7c(c6)C(=O)N(C6CCC(=O)NC6=O)C7=O)CC5)CC4)cc3)CC2)CN1c1ccc(C#N)c(Cl)c1 (some centres unmarked) in the records?
## Output 9.2
